# Tested on: HT29 colon
# TEST DESCRIPTION: NCI-60 one-dose screen, 48 h (100 = growth as untreated, 0 = no growth, -100 = all killed)
# MEASUREMENT PARAMETERS: 10 µM unless noted
The panel holds about 83,000 compounds, 20% with a hit somewhere; the sample as a whole holds those more often.
param class (str): category from growth; see ranges bottom = under 40%, middle = from 40% up to 80%, top = 80% and over

Field: class (growth) — entry: CCCCCNCCCCCNc1cc(OC)cc2cccnc12 middle

Field: class (growth) — entry: Nc1nc(N)c2cc(Sc3ccc(Cl)cc3)ccc2n1 bottom

Field: class (growth) — entry: Cc1ccc(S(=O)(=O)NC(CCC(=O)Nc2ccc(Cl)cc2)C(=O)Nc2ccc(Cl)cc2)cc1 (stereo unspecified) bottom

Field: class (growth) — entry: CCCCCCCCCCCCCCCCS(=O)(=O)Nc1cc(C(=O)NN)cc(C(=O)NN)c1 top

Field: class (growth) — entry: Oc1[nH]c2ccc(Cl)cc2c1/C=c1/ccc2c(c1)N=C(c1ccc(F)cc1)N=2 middle

---

# System: NCI-H226 lung
# TEST DESCRIPTION: NCI-60 one-dose screen, 48 h (100 = growth as untreated, 0 = no growth, -100 = all killed)
# MEASUREMENT PARAMETERS: 10 µM unless noted
About 83,000 compounds went through this panel and 20% of them were active in at least one assay; those are over-represented in the sample as a whole. Activity calls are given as the source filed them. How the source made its calls: active means growth percent below 10; inactive means the rest.
Each entry below lists one item and its recorded growth value.

Provide growth value for the following molecule: CC(C)OC(=O)c1ccc([N+](=O)[O-])cc1 106% (inactive)

Provide growth value for the following molecule: C#CC[C@@H]1C[C@]2(C)[C@H]3CC[C@@H]4[C@H]5C(C(=C)C)CC[C@]5(C(=O)NCCCCN)CC[C@@]4(C)[C@]3(C)CC[C@H]2C(C)(C)[C@H]1OC(C)=O (stereo not given in full) 96.1% (inactive)

Others:
Provide growth value for the following molecule: Cc1cc(Cl)c2ccc(N(C)C)cc2n1 97.6% (inactive)

Provide growth value for the following molecule: CC(=O)N1N=C(c2ccc(C)cc2)CC1c1cn(-c2ccccc2)nc1-c1cccc(Nc2ccnc3cc(Cl)ccc23)c1 (stereo not given) 111% (inactive)

Provide growth value for the following molecule: O=C(CCc1nc2sc3c(c2c(=O)[nH]1)CCC3)NCc1cn(-c2ccccc2)nc1-c1ccccc1 92.2% (inactive)

---

# Test system: CCRF-CEM leukemia
# TEST DESCRIPTION: NCI-60 one-dose screen, 48 h
# MEASUREMENT PARAMETERS: 10 µM unless noted
Compounds without any hit were thinned out: in the full panel of roughly 83,000, 20% have a hit. Calls of active or inactive are those of the source. Rule for the calls: active = growth percent below 10; inactive = the rest.
# valid calls are active, inactive; nothing else

Look up the recorded call for O=C(/C=C/c1ccccc1)n1c(-c2ccccc2)nc2ccccc21 in this test. inactive

Query compound follows.
Look up the recorded call for CCCCCCCCNC(C)C(O)c1ccc(SC(C)C)cc1 (stereo not given) in this test. active

---

# Test system: HCT-15 colon
# TEST DESCRIPTION: NCI-60 one-dose screen, 48 h (100 = growth as untreated, 0 = no growth, -100 = all killed)
# MEASUREMENT PARAMETERS: 10 µM unless noted
# Method: Growth inhibition of the HCT-15 human tumor cell line is measured as a screen for anti-cancer activity. Cells are grown in 96 well plates and exposed to the test compound for 48 hours. Compounds are tested at a single concentration, which is 10^-5 M for most compounds. The reported endpoint is percent growth (GI% or GIPRCNT), where numbers from 0 - 100% represent growth inhibition, and numbers from -100% - 0 represent cell death. For example, a value of 40 represents 60% growth inhibition. […]
Compounds without any hit were thinned out: in the full panel of roughly 83,000, 20% have a hit.
If the reported growth equals or exceeds 90%, assign Y. If not, assign N.

# check: growth of COc1cc(NCCCCC(C)N)c2nccc(C)c2c1 (stereo unspecified) is greater than or equal to 90% Y

# check: growth of C=CCn1c(SCC(=O)Nc2ccc(/C(C)=N\O)cc2)nnc1-c1cc(-c2ccc(Cl)cc2)nc2ccccc12 is greater than or equal to 90% N

# check: growth of CN(C)c1ccc(/C=C(\C#N)c2nc3ccccc3n2C)cc1 is greater than or equal to 90% N

# check: growth of CC1C2CCC(C2)C1COCCOCCO (stereo unspecified) is greater than or equal to 90% Y

# check: growth of O=C(Nc1ccccc1Cl)Oc1ccc2ccccc2c1 is greater than or equal to 90% Y

Others:
# check: growth of Cc1cc(C)cc(CCCCCCCCCCCCCCCCCC(=O)O)c1 is greater than or equal to 90% Y

# check: growth of Fc1ccc(-c2nnc(N3CCOCC3)c3ccccc23)cc1 is greater than or equal to 90% Y

# check: growth of CN1CCN(Cc2ccc(NC(=O)c3cncc(C#Cc4ncc5cnccn45)c3)cc2C(F)(F)F)CC1 is greater than or equal to 90% N

# check: growth of Cc1cc(O)ccc1C1=NN(c2ccc(S(N)(=O)=O)cc2)C(=O)CC1 is greater than or equal to 90% N

# check: growth of Nc1c(C(=O)Nc2cccc(Cl)c2)sc2ncc(Br)cc12 is greater than or equal to 90% N

---

# System: SK-OV-3 ovarian
# TEST DESCRIPTION: NCI-60 one-dose screen, 48 h (100 = growth as untreated, 0 = no growth, -100 = all killed)
# MEASUREMENT PARAMETERS: 10 µM unless noted
About 83,000 compounds went through this panel and 20% of them were active in at least one assay; those are over-represented in the sample as a whole.
Each entry below lists one item and its recorded growth value.
Could you give me the number in %? Just the number is fine.

As a guide, the following entries are already answered.
Consider the compound COc1ccc(C2C3CCc4ccccc4C3=NN2C(=O)c2cc(OC)c(OC)c(OC)c2)cc1O (stereo not given) tested on SK-OV-3 ovarian; state its growth. 88

Consider the compound COc1cc(-c2n/c(=C\c3c(O)[nH]c4cc(Cl)ccc34)cc3c2=Nc2ccccc2-3)cc(OC)c1OC tested on SK-OV-3 ovarian; state its growth. 59.4

Consider the compound COc1ccc(/C(=C\c2cc(OC)c(OC)c(OC)c2)C(=O)N2CCCNCC2)cc1 tested on SK-OV-3 ovarian; state its growth. 103

Consider the compound CCCCCCCCCCCCCC(=S)NCCCC[C@H](NC(=O)OCc1ccccc1)C(=O)Nc1ccccc1 tested on SK-OV-3 ovarian; state its growth. 78.2

Consider the compound CCN(CC)CCCC(C)Nc1cnc(C(=O)Nc2cccc3ccc(OC)nc23)cn1 (stereo not given) tested on SK-OV-3 ovarian; state its growth. 87

Consider the compound COc1ccc(/C=C2\N=C(c3cccnc3)N(c3ccccc3)NC2=O)cc1 tested on SK-OV-3 ovarian; state its growth. 130

Consider the compound CC(=O)Nc1nonc1-c1nc2ccccc2n1Cc1ccc(C(C)(C)C)cc1 tested on SK-OV-3 ovarian; state its growth. 88.9

Consider the compound OC(c1cc2c(Cl)cc(Cl)cc2c2cc(C(F)(F)F)ccc12)C1CCCCN1 (stereo not given) tested on SK-OV-3 ovarian; state its growth. -18.3

Consider the compound C=CCn1c(SCC(=O)Nc2ccc(/C(C)=N\O)cc2)nnc1-c1cc(-c2ccccc2)nc2ccccc12 tested on SK-OV-3 ovarian; state its growth. 79.6

Consider the compound O=C(O)C1[S][Sb]([CH](C(=O)O)[CH](C(=O)O)[Sb]2[S]C(C(=O)O)C(C(=O)O)[S]2)[S]C1C(=O)O (stereo not given) tested on SK-OV-3 ovarian; state its growth. 103

Others:
Consider the compound O=C(CCCCCCc1nc2ccc(Br)cc2[nH]1)NO tested on SK-OV-3 ovarian; state its growth. -41.8

Consider the compound Fc1cnccc1-c1nc2ccc3[nH]ncc3c2c2c1CCCC2 tested on SK-OV-3 ovarian; state its growth. -21.2

Consider the compound CC(C)(C)NC(=O)C(OC(=O)C1CCc2cc(F)ccc2O1)c1ccccc1Cl (stereo not given) tested on SK-OV-3 ovarian; state its growth. 102

Consider the compound Oc1ccc(CCCCCCc2ccc(O)cc2)cc1 tested on SK-OV-3 ovarian; state its growth. 71.5

Consider the compound O=C(/C=C/c1cn(-c2ccccc2)nc1-c1cccc(Nc2ccnc3cc(Cl)ccc23)c1)c1ccc2c(c1)OCO2 tested on SK-OV-3 ovarian; state its growth. 113

Consider the compound CN1CCN(Cc2ccc(NC(=O)c3ccc(C#N)c(C#Cc4cnc(N)c5ncccc45)c3)cc2C(F)(F)F)CC1 tested on SK-OV-3 ovarian; state its growth. 97.6

Consider the compound COc1cccc2nc(Nc3cccc(NC(=O)c4cc(N5CCOCC5)cc(C(F)(F)F)c4)c3)ccc12 tested on SK-OV-3 ovarian; state its growth. 88.9

Consider the compound C/C(=N\OC(=O)Nc1ccccc1)c1ccccc1 tested on SK-OV-3 ovarian; state its growth. 115

Consider the compound Oc1ccc(Cl)cc1-c1cc(-c2ccccc2Cl)[nH]n1 tested on SK-OV-3 ovarian; state its growth. 76.9

Consider the compound COc1ccc(C2=NN(C=O)C(c3ccc(OS(=O)(=O)c4ccc(C)cc4)c(OC)c3)C2)cc1 (stereo not given) tested on SK-OV-3 ovarian; state its growth. 84.3

Consider the compound CCOc1cccc(/C=N/NC(=O)c2ccc(Nc3ccnc(C(F)(F)F)c3)cc2)c1O tested on SK-OV-3 ovarian; state its growth. 10.9

Consider the compound O=[N+]([O-])c1cccc(N=C(Nc2cccc([N+](=O)[O-])c2)c2ccccc2)c1 tested on SK-OV-3 ovarian; state its growth. 107

Consider the compound CC(C)(C)CC(C)(C)NCc1cc(C(C)(C)C)cc(CNC(C)(C)CC(C)(C)C)c1O tested on SK-OV-3 ovarian; state its growth. 81.3
